Each recorded value in this set is attributed to ChEMBL document CHEMBL3217488.

- Test system: Trypanosoma cruzi
- assay-procedure: Antitrypanosomal activity against epimastigote stage of Trypanosoma cruzi Y assessed as parasite growth inhibition at 10 ug/mL after 72 hrs by spectrophotometric analysis relative to control
- Assay type: functional
- condition-set: read-out: GI
Catalogue of compounds with associated inhibition of growth at 10 µg/mL

smiles-notation | inhibition of growth at 10 µg/mL [%]
O=C(N/N=C/c1ccc2c(c1)no[n+]2[O-])c1ccc(Br)cc1 | 44
CN(C)c1ccc(C(=O)N/N=C/c2ccc3c(c2)no[n+]3[O-])cc1 | 4
O=C(N/N=C/c1ccc2c(c1)no[n+]2[O-])c1ccc(Cl)c(Cl)c1 | 51
Nc1ccc(C(=O)N/N=C/c2ccc3c(c2)no[n+]3[O-])cc1 | 7
CC(=O)c1ccc(C(=O)N/N=C/c2ccc3c(c2)no[n+]3[O-])cc1 | 14

---

- Tested on: Trypanosoma cruzi
- assay-procedure: Antitrypanosomal activity against epimastigote stage of Trypanosoma cruzi Y assessed as parasite growth inhibition at 50 ug/mL after 72 hrs by spectrophotometric analysis relative to control
- Format: functional
- condition-set: read-out: GI

molecule | inhibition of growth at 50 µg/mL
O=C(N/N=C/c1ccc2c(c1)no[n+]2[O-])c1ccc(C(F)(F)F)cc1 | 82%
CCOc1ccc(C(=O)N/N=C/c2ccc3c(c2)no[n+]3[O-])cc1 | 66%
O=C(Cn1ccnc1[N+](=O)[O-])NCc1ccccc1 [BENZNIDAZOLE] | 77%
O=C(N/N=C/c1ccc2c(c1)no[n+]2[O-])c1ccc(Cl)cc1Cl | 89%
NS(=O)(=O)c1ccc(C(=O)N/N=C/c2ccc3c(c2)no[n+]3[O-])cc1 | 12%
O=C(N/N=C/c1ccc2c(c1)no[n+]2[O-])c1ccc(Br)cc1 | 58%
CN(C)c1ccc(C(=O)N/N=C/c2ccc3c(c2)no[n+]3[O-])cc1 | 10%
O=C(N/N=C/c1ccc2c(c1)no[n+]2[O-])c1ccc(Cl)c(Cl)c1 | 75%
O=C(N/N=C/c1ccc2c(c1)no[n+]2[O-])c1ccc([N+](=O)[O-])cc1 | 73%
O=C(N/N=C/c1ccc2c(c1)no[n+]2[O-])c1ccc(O)cc1 | 47%
O=C(N/N=C/c1ccc2c(c1)no[n+]2[O-])c1ccccc1 | 95%

---

- Test system: Trypanosoma cruzi
- assay-procedure: Antitrypanosomal activity against epimastigote stage of Trypanosoma cruzi Y assessed as parasite growth inhibition at 10 ug/mL after 72 hrs by spectrophotometric analysis relative to control
- Assay type: functional
- condition-set: read-out: GI
measurement-name: inhibition of growth at 10 µg/mL (%)

smiles-notation | measurement-name | measure-unit | reading
O=C(N/N=C/c1ccc2c(c1)no[n+]2[O-])c1ccccc1 | inhibition of growth at 10 µg/mL | % | 46
O=C(Cn1ccnc1[N+](=O)[O-])NCc1ccccc1 | inhibition of growth at 10 µg/mL | % | 44
O=C(N/N=C/c1ccc2c(c1)no[n+]2[O-])c1ccc([N+](=O)[O-])cc1 | inhibition of growth at 10 µg/mL | % | 13
CCc1ccc(C(=O)N/N=C/c2ccc3c(c2)no[n+]3[O-])cc1 | inhibition of growth at 10 µg/mL | % | 47
CCOc1ccc(C(=O)N/N=C/c2ccc3c(c2)no[n+]3[O-])cc1 | inhibition of growth at 10 µg/mL | % | 32
O=C(N/N=C/c1ccc2c(c1)no[n+]2[O-])c1ccc([N+](=O)[O-])c(C(F)(F)F)c1 | inhibition of growth at 10 µg/mL | % | 54
O=C(N/N=C/c1ccc2c(c1)no[n+]2[O-])c1ccc(Cl)cc1 | inhibition of growth at 10 µg/mL | % | 54
Cc1ccc(C(=O)N/N=C/c2ccc3c(c2)no[n+]3[O-])cc1 | inhibition of growth at 10 µg/mL | % | 34
O=C(N/N=C/c1ccc2c(c1)no[n+]2[O-])c1ccc(O)cc1 | inhibition of growth at 10 µg/mL | % | 0
NS(=O)(=O)c1ccc(C(=O)N/N=C/c2ccc3c(c2)no[n+]3[O-])cc1 | inhibition of growth at 10 µg/mL | % | 5
O=C(N/N=C/c1ccc2c(c1)no[n+]2[O-])c1ccc(I)cc1 | inhibition of growth at 10 µg/mL | % | 54
O=C(N/N=C/c1ccc2c(c1)no[n+]2[O-])c1ccc(C(F)(F)F)cc1 | inhibition of growth at 10 µg/mL | % | 65
O=C(N/N=C/c1ccc2c(c1)no[n+]2[O-])c1ccc(Cl)cc1Cl | inhibition of growth at 10 µg/mL | % | 42
O=C(N/N=C/c1ccc2c(c1)no[n+]2[O-])c1ccc(F)cc1 | inhibition of growth at 10 µg/mL | % | 45
COc1ccc(C(=O)N/N=C/c2ccc3c(c2)no[n+]3[O-])cc1 | inhibition of growth at 10 µg/mL | % | 36
N#Cc1ccc(C(=O)N/N=C/c2ccc3c(c2)no[n+]3[O-])cc1 | inhibition of growth at 10 µg/mL | % | 8

---

- System: Trypanosoma cruzi
- assay-procedure: Antitrypanosomal activity against epimastigote stage of Trypanosoma cruzi Y assessed as parasite growth inhibition at 50 ug/mL after 72 hrs by spectrophotometric analysis relative to control
- Format: functional
- condition-set: read-out: GI
Catalogue of molecules with associated inhibition of growth at 50 µg/mL
measurement-name: inhibition of growth at 50 µg/mL (%)

smiles-notation | measurement-name | reading
Cc1ccc(C(=O)N/N=C/c2ccc3c(c2)no[n+]3[O-])cc1 | inhibition of growth at 50 µg/mL | 76
CCc1ccc(C(=O)N/N=C/c2ccc3c(c2)no[n+]3[O-])cc1 | inhibition of growth at 50 µg/mL | 85
O=C(N/N=C/c1ccc2c(c1)no[n+]2[O-])c1ccc(Cl)cc1 | inhibition of growth at 50 µg/mL | 62
O=C(N/N=C/c1ccc2c(c1)no[n+]2[O-])c1ccc(I)cc1 | inhibition of growth at 50 µg/mL | 60
COc1ccc(C(=O)N/N=C/c2ccc3c(c2)no[n+]3[O-])cc1 | inhibition of growth at 50 µg/mL | 76
O=C(N/N=C/c1ccc2c(c1)no[n+]2[O-])c1ccc([N+](=O)[O-])c(C(F)(F)F)c1 | inhibition of growth at 50 µg/mL | 82
O=C(N/N=C/c1ccc2c(c1)no[n+]2[O-])c1ccc(F)cc1 | inhibition of growth at 50 µg/mL | 78
Nc1ccc(C(=O)N/N=C/c2ccc3c(c2)no[n+]3[O-])cc1 | inhibition of growth at 50 µg/mL | 42
N#Cc1ccc(C(=O)N/N=C/c2ccc3c(c2)no[n+]3[O-])cc1 | inhibition of growth at 50 µg/mL | 44
CC(=O)c1ccc(C(=O)N/N=C/c2ccc3c(c2)no[n+]3[O-])cc1 | inhibition of growth at 50 µg/mL | 83
